tested on: Haemophilus influenzae 76; test: MIC, standard agar-dilution assay, H. influenzae 76; type: cell-based; conditions: agar-dilution, ampicillin-resistant strain, read-out: MIC
Give MIC for every item shown.

The examples below pair each entry with its known result.
Entry CCC1OC(=O)CC(O)C(C)C(OC2OC(C)C(O)C(N(C)C)C2O)C(CCOc2ccccc2)CC(C)C(=O)C=CC(C)=CC1COC1OC(C)/C(=N/OC)C(OC)C1OC (centres unmarked) : reported MIC = ?
> 128 µg/mL

Entry CCC1OC(=O)CC(O)C(C)C(OC2OC(C)C(O)C(N(C)C)C2O)C(CCOc2ccccc2)CC(C)C(=O)C=CC(C)=CC1COC1OC(C)/C(=N\OC)C(OC)C1OC (centres unmarked) : reported MIC = ?
> 128 µg/mL

Entry CCC1OC(=O)CC(O)C(C)C(OC2OC(C)C(O)C(N(C)C)C2O)C(CCOc2ccccc2)CC(C)C(=O)C=CC(C)=CC1COC1OC(C)C(NC(C)=O)C(OC)C1OC (centres unmarked) : reported MIC = ?
> 128 µg/mL

Entry CCC1OC(=O)CC(O)C(C)C(OC2OC(C)C(O)C(N(C)C)C2O)C(CCOc2ccccc2)CC(C)C(=O)C=CC(C)=CC1COC1OC(C)C(NCc2ccccc2)C(OC)C1OC (centres unmarked) : reported MIC = ?
128 µg/mL

Now for a further compound.
Entry CCC1OC(=O)CC(O)C(C)C(OC2OC(C)C(OC(C)=O)C(N(C)C)C2OC(C)=O)C(CCOc2ccccc2)CC(C)C(=O)C=CC(C)=CC1COC1OC(C)C(OS(=O)(=O)C(F)(F)F)C(OC)C1OC (centres unmarked) : reported MIC = ?
> 128 µg/mL

Origin of values: patent US4920103A
